Tested on: NCI-H460
assay-name: NCI tumour cell line growth inhibition, 48 h
Activity calls are given as the source filed them. Rule as the data show it: active = GI50 up to about 1.1 µM and inactive = higher.
Hi there, use one of these labels in your reply, thanks! active, inactive

These recorded examples may help you get a feel for the data.
# molecule, target-under-test, classification
measured = [
    ("C#C[C@@H](CCCC)OC(=O)N[C@H](C)c1ccccc1", "NCI-H460", "inactive"),
    ("CN(C)CCCCN1c2ccccc2Sc2cc(N=[N+]=[N-])ccc21", "NCI-H460", "inactive"),
    ("Cc1ccc(/N=C/C=C(\\Nc2ccc(C)cc2)c2ccc3ccccc3c2)cc1", "NCI-H460", "active"),
    ("COC(=O)NC1(NC(=O)OC)NC(=O)c2cc(OC)c(OC)c(OC)c2N1", "NCI-H460", "inactive"),
    ("CC(=O)c1nc2ccccc2n1CC(=O)c1ccc([N+](=O)[O-])cc1", "NCI-H460", "inactive"),
    ("O=c1[nH]c2nccnc2c2c([N+](=O)[O-])cccc12", "NCI-H460", "inactive"),
    ("COc1ccc(C2c3cc4c(cc3OC(N3CCCCC3)C2C)OCO4)cc1 (configuration not stated)", "NCI-H460", "inactive"),
    ("N#CC1(C#N)NC(c2ccsc2)C(C#N)(C#N)NC1c1ccsc1 (configuration not stated)", "NCI-H460", "inactive"),
]

--- query ---
Lab log entry: `O=c1[nH]nc(Cc2ccc(Cl)cc2)n1/N=C\c1ccc(/C=N/n2c(Cc3ccc(Cl)cc3)n[nH]c2=O)cc1` — outcome as called in the assay?
inactive

---

System: SF-295
assay-name: NCI tumour cell line growth inhibition, 48 h
The source made the active and inactive calls. Rule as the data show it: active = GI50 up to about 1.1 µM and inactive = higher.
Hi there, use one of these labels in your reply, thanks! active, inactive

# compound, target-under-test, classification
data = [
    ("COc1c(O)ccc2c1CN1CCc3cc4c(cc3C1C2)OCO4 (stereo not given)", "SF-295", "inactive"),
    ("Cc1c2ccnc(C(F)(F)F)c2cc2c1[nH]c1ccccc12", "SF-295", "inactive"),
    ("COc1cc2c(cc1OC)C13CC[N+]4(C)CC5=CCOC6CC(=O)N2C1C6C5CC34[O-] (stereo not given)", "SF-295", "inactive"),
    ("COc1ccc2nc3ccccc3c(NCCCCCCN(CCCl)CCCl)c2c1", "SF-295", "active"),
    ("O=[N+]([O-])c1ccc(Sc2c3ccccc3nc3ccccc23)nc1", "SF-295", "inactive"),
    ("Cc1cc(Cl)ccc1NC1=NC(=O)C(CC(=O)Nc2ccc(Cl)cc2Cl)S1 (stereo not given)", "SF-295", "inactive"),
    ("O=c1[nH]c2nccnc2c2c([N+](=O)[O-])cccc12", "SF-295", "inactive"),
    ("C[Si]1(C)C(c2ccccc2)=CC2C(c3ccccc3)(c3ccccc3)OC21c1ccccc1 (stereo not given)", "SF-295", "inactive"),
    ("CC1(C)C2CC(O)C1CCC2=O (stereo not given)", "SF-295", "inactive"),
    ("c1ccc([P+](CCCCCC[P+](c2ccccc2)(c2ccccc2)c2ccccc2)(c2ccccc2)c2ccccc2)cc1", "SF-295", "inactive"),
]

Lab log entry: `CCCSc1ccc2[nH]c(N3C(=O)/C(=C/c4cc(OC)c(OC)c(OC)c4)N=C3c3ccccc3)cc2c1` — outcome as called in the assay?
inactive

Lab log entry: CC1=Nc2ccccc2SC(c2c(Cl)cccc2Cl)C1 (stereo not given) — outcome as called in the assay?
inactive

Lab log entry: `C=C(C(=O)OC)[C@H]1CC/C(C)=C/CC[C@@](C)(O)C=CC[C@@]2(C)O[C@@H]2C1` — outcome as called in the assay?
inactive

Lab log entry: `Cc1cc(C(F)(F)F)cc(-n2nc(NS(=O)(=O)c3cc(C)c(Cl)cc3S)nc2N)n1` — outcome as called in the assay?
inactive

Lab log entry: `Cc1ccc(NC(=O)CCCC(=O)CC(=O)c2ccc(Br)cc2)cc1` — outcome as called in the assay?
inactive

Lab log entry: NC(=O)NCCCC(NC(=O)OCCCCCn1ccc(=O)[nH]c1=O)C(=O)O (stereo not given) — outcome as called in the assay?
inactive

Lab log entry: `CC(C)(C)c1cc([Si](C)(C)C)c(C#N)c([Si](C)(C)C)c1` — outcome as called in the assay?
inactive

Lab log entry: CC(=O)c1ccccc1NC(=O)C(=O)C(C(=O)c1ccccc1-c1ccccc1)C1OC(=O)c2ccccc21 (stereo not given) — outcome as called in the assay?
inactive

Lab log entry: COc1cc(C(C#N)NNC(=O)Cc2ccccc2)cc(OC)c1OC (stereo not given) — outcome as called in the assay?
inactive

Lab log entry: `CC(=O)Nc1cc2c(cc1O)CC[C@@H]1[C@@H]2CC[C@]2(C)[C@@H](O)CC[C@@H]12` — outcome as called in the assay?
inactive

Reference source: ChEMBL document CHEMBL1201862
